Where do the numbers come from? From patent US9555038B2.

- System: HCV replicon 1AY93H
- protocol description: Cell-based HCV Replicon Assay A, replicon 1AY93H
- condition set: read-out: 1A Y93H IC50, replicon 1AY93H
pIC50: −log10 of the molar value.
The entries below come with measured pIC50 values attached.
parameter measured: pIC50

1) COC(=O)N[C@H](C(=O)N1CCC[C@H]1c1ncc(-c2cc(F)c3c(c2)OC(c2cnc(Nc4ccc(F)cc4)s2)n2c-3cc3cc(-c4cnc([C@@H]5CCCN5C(=O)[C@@H](NC(=O)OC)C(C)C)[nH]4)ccc32)[nH]1)C(C)C (single isomer, unassigned): 10.08
2) CCC(CC)c1ncc(C2Oc3cc(-c4cnc([C@@H]5CCCN5C(=O)[C@@H](NC(=O)OC)C(C)C)[nH]4)cc(F)c3-c3cc4cc(-c5cnc([C@@H]6CCCN6C(=O)C(NC(=O)OC)C6CCOC(C)(C)C6)[nH]5)ccc4n32)s1 (single isomer, unassigned) [Compound 444]: 11.30
3) COC(=O)NC(C(=O)N1[C@@H]2C[C@@H]2C[C@H]1c1ncc(-c2ccc3c(c2)cc2n3C(c3cnc(C4(C)CCCC4)s3)Oc3cc(-c4cnc([C@@H]5CCCN5C(=O)[C@@H](NC(=O)OC)C(C)C)[nH]4)cc(F)c3-2)[nH]1)C1C[C@@H](C)O[C@@H](C)C1 (single isomer, unassigned) [Compound 473]: 11.70
4) COC(=O)N[C@H](C(=O)N1CCC[C@H]1c1ncc(-c2cc(F)c3c(c2)OC(c2csc(C4CC4)n2)n2c-3cc3cc(-c4cnc([C@@H]5CCCN5C(=O)[C@@H](NC(=O)OC)C(C)C)[nH]4)ccc32)[nH]1)C(C)C (single isomer, unassigned) [Compound 432]: 8.59
5) COC(=O)NC(C(=O)N1CCC[C@H]1c1ncc(-c2ccc3c(c2)cc2n3C(c3cnc(C4(C)CC4)s3)Oc3cc(-c4cnc([C@@H]5CCCN5C(=O)[C@@H](NC(=O)OC)C(C)C)[nH]4)cc(F)c3-2)[nH]1)C1C[C@@H](C)O[C@@H](C)C1 (single isomer, unassigned) [Compound 462]: 11.15
6) COC(=O)N[C@H](C(=O)N1CCC[C@H]1c1ncc(-c2cc(F)c3c(c2)OC(c2cnc(C4(C)CC4)s2)n2c-3cc3cc(-c4cnc([C@@H]5CCCN5C(=O)[C@@H](NC(=O)OC)C(C)C)[nH]4)ccc32)[nH]1)C(C)C (single isomer, unassigned) [Compound 511]: 10.31
7) COC(=O)N[C@H](C(=O)N1CCC[C@H]1c1ncc(-c2cc(F)c3c(c2)OC(c2cnc(-c4ccc(OC)cc4)s2)n2c-3cc3cc(-c4cnc([C@@H]5CCCN5C(=O)[C@@H](NC(=O)OC)C(C)C)[nH]4)ccc32)[nH]1)C(C)C (single isomer, unassigned) [Compound 46]: 9.27
